# target_system: human plasma kallikrein (Homo sapiens, UniProt P03952)
# Sequence (P03952 391-638 limits assumed): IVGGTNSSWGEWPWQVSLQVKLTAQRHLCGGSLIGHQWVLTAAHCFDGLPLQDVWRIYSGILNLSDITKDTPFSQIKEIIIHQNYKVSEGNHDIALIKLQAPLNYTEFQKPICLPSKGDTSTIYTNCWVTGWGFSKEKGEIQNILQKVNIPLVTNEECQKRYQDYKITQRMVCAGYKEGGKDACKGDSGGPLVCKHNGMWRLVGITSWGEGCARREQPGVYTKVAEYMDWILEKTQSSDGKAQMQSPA
# Sequence (P03952 20-390 partner limits assumed): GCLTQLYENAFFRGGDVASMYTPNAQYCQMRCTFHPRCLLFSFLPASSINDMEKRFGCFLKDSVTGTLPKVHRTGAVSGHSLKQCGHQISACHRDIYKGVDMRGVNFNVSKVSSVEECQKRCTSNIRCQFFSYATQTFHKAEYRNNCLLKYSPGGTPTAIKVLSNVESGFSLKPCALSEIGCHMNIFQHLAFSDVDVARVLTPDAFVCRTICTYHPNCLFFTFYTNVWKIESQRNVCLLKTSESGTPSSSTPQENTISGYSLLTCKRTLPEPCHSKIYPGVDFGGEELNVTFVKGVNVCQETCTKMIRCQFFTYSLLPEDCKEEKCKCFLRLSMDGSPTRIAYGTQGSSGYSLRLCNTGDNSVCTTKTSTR
# experimental_details: Kallikrein inhibition FLINT assay with quenched AMC peptide substrate Z-Gly-Pro-Arg-AMC (end point EP or kinetic KIN reads)
# Assay type: biochemical
# measurement_context: kinetic reads at 5 min intervals over 30 min; read-out: Kallikrein (KIN) IC50
measure_name: log10(IC50) (log10 of the value in nM)
Scale: log10; quantity: IC50; unit before log: nM

[in] Could you share which log10(IC50) value was measured for [O-][n+]1cc(-c2c(-n3cc(Cl)nn3)ccc(Cl)c2F)ccc1[C@@H](CCOC(F)F)n1cc(-c2cnnn2C(F)F)cn1 [Example P668] ?
[out] 1.59

[in] Consider the compound Cn1nccc1-c1cnn(C(Cn2cc(F)cn2)c2ccc(-c3c(C(F)F)ccc(Cl)c3F)c[n+]2[O-])c1 (stereo not drawn) [Example Q30] and give its measured log10(IC50).
[out] 1.94

[in] // lookup log10(IC50) for O=C(O)c1ccc(-c2cnn(C(c3cn(C4CCNCC4)nn3)c3ccc(-c4c(-n5cnnn5)ccc(Cl)c4F)c[n+]3[O-])c2)cc1 (stereo not drawn) [Example P52]
[out] 3.89

[in] log10(IC50) for [O-][n+]1cc(-c2c(-n3cnnn3)ccc(Cl)c2F)ccc1C(CCOC(F)F)n1cc(-c2ccnc(C(F)(F)F)n2)cn1 (single isomer, unassigned) [Example P401] ?
[out] 1.27

[in] Value lookup for log10(IC50); key = NC(=O)c1ccc(-c2cnn(C(Cc3ccn(C(F)F)n3)c3ccc(-c4c(C(F)F)ccc(Cl)c4F)c[n+]3[O-])c2)cc1F (single isomer, unassigned) [Example Q66]
[out] 2.68

[in] // returns reported log10(IC50) for input Cn1nccc1-c1cnn(C(Cn2cc(F)cn2)c2ccc(-c3c(-n4cnnn4)ccc(Cl)c3F)c[n+]2[O-])c1 (single isomer, unassigned) [Example P501]
[out] 2.87

[in] Consider the compound O=C(NC1CC1)c1ccc(-c2cnn(C(Cc3ccc(F)cc3)c3ccc(-c4c(-n5cnnn5)ccc(Cl)c4F)c[n+]3[O-])c2)cc1 (stereo not drawn) [Example P125] and give its measured log10(IC50).
[out] 0.52

[in] Given the compound [O-][n+]1cc(-c2c(-n3cnnn3)ccc(Cl)c2F)ccc1C(Cc1ccc(F)cc1)n1cc(-c2cnn(C(F)F)n2)cn1 (single isomer, unassigned) [Example P598] , what is its reported log10(IC50)?
[out] 2.94

[in] Would you mind telling me what log10(IC50) value was observed for Cn1cc(C[C@H](c2ccc(-c3c(-n4cnnn4)ccc(Cl)c3F)c[n+]2[O-])n2cc(-c3ccnc(C(F)(F)F)c3)cn2)nn1 [Example P736] ?
[out] 0.92

[in] Reported log10(IC50) for [O-][n+]1cc(-c2c(-n3cnnn3)ccc(Cl)c2F)ccc1[C@@H](Cc1nccs1)n1cc(-c2ccnn2C(F)F)cn1 [Example P718] : what is it?
[out] 1.05

[in] Look up log10(IC50): Cn1ncc(-c2cnn(C(Cc3ccc(F)cc3)c3ccc(-c4c(-n5cnnn5)ccc(Cl)c4F)c[n+]3[O-])c2)cc1=O (stereo not drawn) [Example P116]
[out] 1.42

====

I'd appreciate it if you could supply pIC50 values for the items below.
# target_system: human plasma kallikrein (Homo sapiens)
# experimental_details: Kallikrein inhibition FLINT assay with quenched AMC peptide substrate Z-Gly-Pro-Arg-AMC (end point EP or kinetic KIN reads)
# Type: biochemical
# measurement_context: kinetic reads at 5 min intervals over 30 min; read-out: Kallikrein (KIN) IC50
Remember the convention: pIC50 equals -log10 of concentration in molar.

[in] Item [O-][n+]1cc(-c2c(-n3cnnn3)ccc(Cl)c2F)ccc1[C@H](Cc1ccc(F)cc1)n1cc(-c2ccnn2C(F)F)cn1 with human plasma kallikrein (Homo sapiens) - pIC50?
[out] 7.17

[in] Lab request: please report pIC50 under test system human plasma kallikrein (Homo sapiens) for N#Cc1cnn(C(F)F)c1-c1cnn(C(CC2CC2)c2ccc(-c3c(-n4cnnn4)ccc(Cl)c3F)c[n+]2[O-])c1 (single isomer, unassigned)
[out] 6.03

[in] Entry O=C(O)c1ccc(-c2cnn(C(CC(=O)N3CCCC3)c3ccc(-c4c(-n5cc(C(F)(F)F)nn5)ccc(Cl)c4F)c[n+]3[O-])c2)cc1F (stereo not drawn) , system human plasma kallikrein (Homo sapiens): what pIC50 was measured?
[out] 6.54

Provenance of the data: patent US11814364B2
